Values from PubChem BioAssay AID1963861

# Test system: 885724-159-R-J1-PDC KRAS PDC multicell spheroid viability
# procedure_details: Anticancer human tumor 885724-159-R-J1-PDC patient-derived pancreatic adenocarcinoma cell line growth inhibition [KRAS2]
# particulars: second compound 0.1 µM; first compound 0.000316 µM; active compounds read low
Each record here notes measured viability, T/C.

compound	viability, T/C [%]
CN(C)C/C=C/C(=O)Nc1cc2c(Nc3ccc(F)c(Cl)c3)ncnc2cc1O[C@H]1CCOC1 + CC1OCC2(CCN(c3cnc(Sc4ccnc(N)c4Cl)c(N)n3)CC2)C1N	112
Cn1ncnc1[C@H]1c2n[nH]c(=O)c3cc(F)cc(c23)N[C@@H]1c1ccc(F)cc1 + CNCc1ccccc1-c1csc(C(C)Nc2nc(C)nc3cc(OC)c(OC)cc23)c1	100
Cn1ncnc1[C@H]1c2n[nH]c(=O)c3cc(F)cc(c23)N[C@@H]1c1ccc(F)cc1 + C=CC(=O)N1CCN(c2nc(OCC3CCCN3C)nc3c2CCN(c2cccc4cccc(C)c24)C3)CC1CC#N	106
CC(C)n1nc(-c2ccc3oc(N)nc3c2)c2c(N)ncnc21 + CC1OCC2(CCN(c3cnc(Sc4ccnc(N)c4Cl)c(N)n3)CC2)C1N	90.5
CC(=O)Nc1cccc(-n2c(=O)n(C3CC3)c(=O)c3c(Nc4ccc(I)cc4F)n(C)c(=O)c(C)c32)c1 + C=CC(=O)N1CCN(c2nc(=O)n(-c3c(C)ccnc3C(C)C)c3nc(-c4c(O)cccc4F)c(F)cc23)C(C)C1	81.2

* * *

# System: 885724-159-R-J1-PDC KRAS PDC multicell spheroid viability
# procedure_details: Anticancer human tumor 885724-159-R-J1-PDC cell line growth inhibition [KRAS2];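 note: spheroids exposed to agents for 7 days before readout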
# particulars: second compound 0.316 µM; first compound 0.1 µM; active compounds read low
hey, just use fulfilled if measured viability, T/C is less than 70%, otherwise not fulfilled

compound	assay_target	assigned_class
CC(C)NCC(C(=O)N1CCN(c2ncnc3c2C(C)CC3O)CC1)c1ccc(Cl)cc1 (stereo not given) + CC1OCC2(CCN(c3cnc(Sc4ccnc(N)c4Cl)c(N)n3)CC2)C1N	885724-159-R-J1-PDC KRAS PDC multicell spheroid viability	fulfilled
CC1(C)CCC(CN2CCN(c3ccc(C(=O)NS(=O)(=O)c4ccc(NCC5CCOCC5)c([N+](=O)[O-])c4)c(Oc4cnc5[nH]ccc5c4)c3)CC2)=C(c2ccc(Cl)cc2)C1 + C=CC(=O)N1CCN(c2nc(OCC3CCCN3C)nc3c2CCN(c2cccc4cccc(C)c24)C3)CC1CC#N	885724-159-R-J1-PDC KRAS PDC multicell spheroid viability	not fulfilled
O=C(c1cc(Cc2n[nH]c(=O)c3ccccc23)ccc1F)N1CCN(C(=O)C2CC2)CC1 + COc1cc2nc(C)nc(NC(C)c3cc(N)cc(C(F)(F)F)c3)c2cc1OC1CCOC1	885724-159-R-J1-PDC KRAS PDC multicell spheroid viability	not fulfilled
CC(C)n1nc(-c2ccc3oc(N)nc3c2)c2c(N)ncnc21 + COc1cc2nc(C)nc(NC(C)c3cc(N)cc(C(F)(F)F)c3)c2cc1OC1CCOC1	885724-159-R-J1-PDC KRAS PDC multicell spheroid viability	fulfilled
Cn1nccc1Nc1nccc(-c2cc3c(s2)C(C)(C)N(CCN2CCOCC2)C3=O)n1 + CC1OCC2(CCN(c3cnc(Sc4ccnc(N)c4Cl)c(N)n3)CC2)C1N	885724-159-R-J1-PDC KRAS PDC multicell spheroid viability	fulfilled
CC(C)NCC(C(=O)N1CCN(c2ncnc3c2C(C)CC3O)CC1)c1ccc(Cl)cc1 (stereo not given) + COc1cc2nc(C)nc(NC(C)c3cc(N)cc(C(F)(F)F)c3)c2cc1OC1CCOC1	885724-159-R-J1-PDC KRAS PDC multicell spheroid viability	not fulfilled
CN(C)C/C=C/C(=O)Nc1cc2c(Nc3ccc(F)c(Cl)c3)ncnc2cc1O[C@H]1CCOC1 + CNCc1ccccc1-c1csc(C(C)Nc2nc(C)nc3cc(OC)c(OC)cc23)c1	885724-159-R-J1-PDC KRAS PDC multicell spheroid viability	fulfilled
COc1cc(Nc2ncc3c(n2)-c2ccc(Cl)cc2C(c2c(F)cccc2OC)=NC3)ccc1C(=O)O + CNCc1ccccc1-c1csc(C(C)Nc2nc(C)nc3cc(OC)c(OC)cc23)c1	885724-159-R-J1-PDC KRAS PDC multicell spheroid viability	not fulfilled
CC(C)n1nc(-c2ccc3oc(N)nc3c2)c2c(N)ncnc21 + CNCc1ccccc1-c1csc(C(C)Nc2nc(C)nc3cc(OC)c(OC)cc23)c1	885724-159-R-J1-PDC KRAS PDC multicell spheroid viability	fulfilled
CCN1CCN(Cc2ccc(Nc3ncc(F)c(-c4cc(F)c5nc(C)n(C(C)C)c5c4)n3)nc2)CC1 + C=CC(=O)N1CCN(c2nc(OCC3CCCN3C)nc3c2CCN(c2cccc4cccc(C)c24)C3)CC1CC#N	885724-159-R-J1-PDC KRAS PDC multicell spheroid viability	not fulfilled
CC1(C)CCC(CN2CCN(c3ccc(C(=O)NS(=O)(=O)c4ccc(NCC5CCOCC5)c([N+](=O)[O-])c4)c(Oc4cnc5[nH]ccc5c4)c3)CC2)=C(c2ccc(Cl)cc2)C1 + CC1OCC2(CCN(c3cnc(Sc4ccnc(N)c4Cl)c(N)n3)CC2)C1N	885724-159-R-J1-PDC KRAS PDC multicell spheroid viability	not fulfilled
COC(=O)c1ccc2c(C(=Nc3ccc(N(C)C(=O)CN4CCN(C)CC4)cc3)c3ccccc3)c(O)[nH]c2c1 + COc1cc2nc(C)nc(NC(C)c3cc(N)cc(C(F)(F)F)c3)c2cc1OC1CCOC1	885724-159-R-J1-PDC KRAS PDC multicell spheroid viability	not fulfilled
CCN1CCN(Cc2ccc(Nc3ncc(F)c(-c4cc(F)c5nc(C)n(C(C)C)c5c4)n3)nc2)CC1 + C=CC(=O)N1CCN(c2nc(=O)n(-c3c(C)ccnc3C(C)C)c3nc(-c4c(O)cccc4F)c(F)cc23)C(C)C1	885724-159-R-J1-PDC KRAS PDC multicell spheroid viability	not fulfilled
CC(=O)OC12COC1CC(O)C1(C)C(=O)C(O)C3=C(C)C(OC(=O)C(O)C(NC(=O)OC(C)(C)C)c4ccccc4)CC(O)(C(OC(=O)c4ccccc4)C21)C3(C)C (stereo not given) + CC1OCC2(CCN(c3cnc(Sc4ccnc(N)c4Cl)c(N)n3)CC2)C1N	885724-159-R-J1-PDC KRAS PDC multicell spheroid viability	not fulfilled
CCNC(=O)CC1N=C(c2ccc(Cl)cc2)c2cc(OC)ccc2-n2c(C)nnc21 (stereo not given) + C=CC(=O)N1CCN(c2nc(OCC3CCCN3C)nc3c2CCN(c2cccc4cccc(C)c24)C3)CC1CC#N	885724-159-R-J1-PDC KRAS PDC multicell spheroid viability	not fulfilled
CC1COCCN1c1cc(-c2ccnn2C)c2ccnc(-c3ccn[nH]3)c2n1 (stereo not given) + CNCc1ccccc1-c1csc(C(C)Nc2nc(C)nc3cc(OC)c(OC)cc23)c1	885724-159-R-J1-PDC KRAS PDC multicell spheroid viability	not fulfilled
Cn1ncnc1[C@H]1c2n[nH]c(=O)c3cc(F)cc(c23)N[C@@H]1c1ccc(F)cc1 + C=CC(=O)N1CCN(c2nc(=O)n(-c3c(C)ccnc3C(C)C)c3nc(-c4c(O)cccc4F)c(F)cc23)C(C)C1	885724-159-R-J1-PDC KRAS PDC multicell spheroid viability	not fulfilled
COc1cc(Nc2ncc3c(n2)-c2ccc(Cl)cc2C(c2c(F)cccc2OC)=NC3)ccc1C(=O)O + C=CC(=O)N1CCN(c2nc(OCC3CCCN3C)nc3c2CCN(c2cccc4cccc(C)c24)C3)CC1CC#N	885724-159-R-J1-PDC KRAS PDC multicell spheroid viability	not fulfilled
